Conditions: 303.15 K; 101.33 kPa; Liquid; Vibrating tube method
Numbers after ± are expanded uncertainties.
result-type: mass density
State the result as a value with its unit after it.

> print(dat)
                                   molecule     value.reported
1  CCCCCCCCCCCCCC(=O)OC [methyl tetradecanoate]  859.9 ± 1.2 kg/m3

Query block: Provide only the value of recorded mass density for CCCCCCCCCC(=O)OC [methyl decanoate]
Result block: 864.1 ± 1 kg/m3

Query block: Provide only the value of recorded mass density for CCCCCCCCCC(=O)OCC [ethyl decanoate]
Result block: 856.2 ± 1 kg/m3

Query block: Provide only the value of recorded mass density for CCCCC/C=C\C/C=C\CCCCCCCC(=O)OC [methyl (Z,Z)-9,12-octadecadienate]
Result block: 878.8 ± 1 kg/m3

Query block: Provide only the value of recorded mass density for CCCCCCCC/C=C\CCCCCCCC(=O)OC [methyl cis-9-octadecenoate]
Result block: 866.8 ± 1 kg/m3

Query block: Provide only the value of recorded mass density for CCCCCCCCCCCCCC(=O)OCC [ethyl tetradecanoate]
Result block: 853.4 ± 1 kg/m3

Query block: Provide only the value of recorded mass density for CCCCCCCCCCCCCCCC(=O)OCC [ethyl hexadecanoate]
Result block: 852.6 ± 1 kg/m3

Query block: Provide only the value of recorded mass density for CCCCCCCCCCCC(=O)OCC [ethyl dodecanoate]
Result block: 854.6 ± 1 kg/m3

Query block: Provide only the value of recorded mass density for CCCCCCCC/C=C\CCCCCCCC(=O)OCC [ethyl (Z)-9-octadeceneoate]
Result block: 862.2 ± 1.2 kg/m3

Query block: Provide only the value of recorded mass density for CCCCCCCCCCCC(=O)OC [methyl dodecanoate]
Result block: 861.8 ± 1.2 kg/m3

Query block: Provide only the value of recorded mass density for CCCCCCCC(=O)OC [methyl octanoate]
Result block: 868.4 ± 1 kg/m3

====

Recorded mass density by entry
Settings: 308.15 K; 101.33 kPa; Liquid; Vibrating tube method
# output: bare number, implied unit kg/m3

> print(dat)
                                   molecule   result.type  value.reported
1  CCCCCCCCCCCCCCCC(=O)OC [methyl hexadecanoate]  mass density           854.5
2       CCCCCCCCCC(=O)OC [methyl decanoate]  mass density             860
3  CCCCCCCCCCCCCC(=O)OCC [ethyl tetradecanoate]  mass density           849.6
4   CCCCCCCCCCCC(=O)OC [methyl dodecanoate]  mass density           857.9

Query block: Provide only the value of recorded mass density for CCCCCCCC/C=C\CCCCCCCC(=O)OCC [ethyl (Z)-9-octadeceneoate]
Result block: 858.5

Query block: Provide only the value of recorded mass density for CCCCCCCCCCCCCCCC(=O)OCC [ethyl hexadecanoate]
Result block: 848.9

Query block: Provide only the value of recorded mass density for CCCCCCCCCC(=O)OCC [ethyl decanoate]
Result block: 852.1

====

Recorded viscosity by entry
Settings: 328.15 K; 101.33 kPa; Liquid; Concentric cylinders viscometry
# output: bare number, implied unit mPa·s

Illustrative cases are given below, each with its answer.
> print(dat)
                                   compound  result.type  value.reported
1       CCCCCCCCCC(=O)OCC [ethyl decanoate]    viscosity           1.259
2   CCCCCCCCCCCC(=O)OCC [ethyl dodecanoate]    viscosity           1.704
3  CCCCCCCC/C=C\CCCCCCCC(=O)OC [methyl cis-9-octadecenoate]    viscosity           2.894

Please look at the following compound next.
Query block: Provide only the value of recorded viscosity for CCCCCCCCCCCCCC(=O)OCC [ethyl tetradecanoate]
Result block: 2.242

====

Settings: 358.15 K; 101.33 kPa; Liquid; Concentric cylinders viscometry
Answer 0.0 if viscosity is under 2 mPa·s, and 1.0 if it is 2 mPa·s or more.

> print(dat)
                                   compound  answer.label
1  CCCCCCCC/C=C\CCCCCCCC(=O)OCC [ethyl (Z)-9-octadeceneoate]           0.0
2  CCCCCCCCCCCCCCCC(=O)OC [methyl hexadecanoate]           0.0
3  CCCCCCCCCCCCCCCCCC(=O)OCC [ethyl octadecanoate]           1.0

Query block: State whether the measured viscosity reaches 2 mPa·s, counting equality as reaching it, for CCCCCCCCCC(=O)OC [methyl decanoate]
Result block: 0.0

Query block: State whether the measured viscosity reaches 2 mPa·s, counting equality as reaching it, for CCCCCCCCCCCCCCCC(=O)OCC [ethyl hexadecanoate]
Result block: 0.0

Query block: State whether the measured viscosity reaches 2 mPa·s, counting equality as reaching it, for CCCCCCCCCCCCCCCCCC(=O)OC [methyl octadecanoate]
Result block: 1.0

====

Recorded mass density by entry
Conditions: 333.15 K; 101.33 kPa; Liquid; Vibrating tube method
# output: bare number, implied unit kg/m3

Illustrative cases are given below, each with its answer.
> print(dat)
                                   compound  value.reported
1  CCCCCCCCCCCCCCCCCC(=O)OC [methyl octadecanoate]           835.3
2   CCCCCCCCCCCC(=O)OCC [ethyl dodecanoate]           831.1
3  CCCCCCCC/C=C\CCCCCCCC(=O)OC [methyl cis-9-octadecenoate]           845.1
4  CCCCCCCCCCCCCCCC(=O)OC [methyl hexadecanoate]           835.8
5  CCCCCCCCCCCCCC(=O)OCC [ethyl tetradecanoate]           830.7
6  CCCCC/C=C\C/C=C\CCCCCCCC(=O)OC [methyl (Z,Z)-9,12-octadecadienate]             857
7       CCCCCCCCCC(=O)OCC [ethyl decanoate]           831.6

Please look at the following compound next.
Query block: Provide only the value of recorded mass density for CCCCCCCCCCCCCCCCCC(=O)OCC [ethyl octadecanoate]
Result block: 830.3

====

Details: 318.15 K; 101.33 kPa; Liquid; Vibrating tube method
Recorded mass density by entry
# output: bare number, implied unit kg/m3

Illustrative cases are given below, each with its answer.
> print(dat)
                                   compound   result.type  value.reported
1  CCCCCCCCCCCCCC(=O)OCC [ethyl tetradecanoate]  mass density             842
2  CCCCCCCCCCCCCCCC(=O)OCC [ethyl hexadecanoate]  mass density           841.5
3  CCCCCCCCCCCCCCCC(=O)OC [methyl hexadecanoate]  mass density             847
4  CCCCCCCC/C=C\CCCCCCCC(=O)OC [methyl cis-9-octadecenoate]  mass density           855.9
5  CCCCCCCC/C=C\CCCCCCCC(=O)OCC [ethyl (Z)-9-octadeceneoate]  mass density           851.3

Query block: Provide only the value of recorded mass density for CCCCCCCCCCCCCC(=O)OC [methyl tetradecanoate]
Result block: 848.4

Query block: Provide only the value of recorded mass density for CCCCCCCCCCCC(=O)OC [methyl dodecanoate]
Result block: 850

====

Details: 318.15 K; 101.33 kPa; Liquid; Concentric cylinders viscometry
Answer f if viscosity is under 2 mPa·s, and t if it is 2 mPa·s or more.

Query block: State whether the measured viscosity reaches 2 mPa·s, counting equality as reaching it, for CCCCCCCCCC(=O)OC [methyl decanoate]
Result block: f

Query block: State whether the measured viscosity reaches 2 mPa·s, counting equality as reaching it, for CCCCCCCC/C=C\CCCCCCCC(=O)OC [methyl cis-9-octadecenoate]
Result block: t

Query block: State whether the measured viscosity reaches 2 mPa·s, counting equality as reaching it, for CCCCCCCCCCCCCC(=O)OC [methyl tetradecanoate]
Result block: t

====

Conditions: 338.15 K; 101.33 kPa; Liquid; Vibrating tube method
Recorded mass density by entry
# output: bare number, implied unit kg/m3

Illustrative cases are given below, each with its answer.
> print(dat)
                                   molecule  value.reported
1  CCCCCCCCCCCCCC(=O)OC [methyl tetradecanoate]           833.1
2  CCCCCCCCCCCCCC(=O)OCC [ethyl tetradecanoate]           826.9
3  CCCCCCCCCCCCCCCC(=O)OCC [ethyl hexadecanoate]           826.9
4  CCCCCCCCCCCCCCCC(=O)OC [methyl hexadecanoate]           832.1
5  CCCCC/C=C\C/C=C\CCCCCCCC(=O)OC [methyl (Z,Z)-9,12-octadecadienate]           853.4
6   CCCCCCCCCCCC(=O)OC [methyl dodecanoate]           834.2

Query block: Provide only the value of recorded mass density for CCCCCCCCCC(=O)OC [methyl decanoate]
Result block: 835.3

Query block: Provide only the value of recorded mass density for CCCCCCCC(=O)OC [methyl octanoate]
Result block: 837.5

Query block: Provide only the value of recorded mass density for CCCCCCCC/C=C\CCCCCCCC(=O)OC [methyl cis-9-octadecenoate]
Result block: 841.5
